species: Homo sapiens; experiment: Selectivity index, ratio of IC50 for human CYP11B2 to IC50 for human CYP11B1
Listed below: Ratio IC50 values for each entry.
Just the number.

Solved entries:
O=c1c2ccc(F)cc2oc2cc(Cn3ccnc3)ccc12 : 6.7
O=c1c2ccc(Br)cc2oc2cc(Cn3ccnc3)ccc12 : 3.9
O=c1c2ccccc2oc2cc(Cn3ccnc3)ccc12 : 4.8
O=c1c2ccc(Cl)cc2oc2cc(Cn3ccnc3)ccc12 : 14.4
O=c1c2ccccc2oc2cccc(Cn3ccnc3)c12 : 1.2
O=c1c2ccccc2oc2ccc(Cn3ccnc3)cc12 : 2.5
COc1ccc2c(=O)c3ccc(Cn4ccnc4)cc3oc2c1 : 2.9
CC(C)Oc1ccc2c(=O)c3ccc(Cn4ccnc4)cc3oc2c1 : 4
O=c1c2ccc(Cn3ccnc3)cc2oc2cc([N+](=O)[O-])ccc12 : 7
O=c1c2ccc(Cn3ccnc3)cc2oc2cc(OC3CCCC3)ccc12 : 3.5

May I ask what Ratio IC50 has been recorded for O=c1c2ccc(Cn3ccnc3)cc2oc2cc(OCC3CC3)ccc12 ? 4.7

Next: O=c1c2ccc(Cn3ccnc3)cc2oc2cc(Oc3ccccc3)ccc12 4

Next: O=c1c2ccccc2oc2c(Cn3ccnc3)cccc12 2.9
